- System: Caco-2 cell monolayers
- PROCEDURE_DETAILS: Caco-2 permeability of SAMe in the presence of tight junction modulators (Examples 3a, 3c)
- RECORDED_CONDITIONS: SAMe permeability; enhancer 0.15 mM (Table 7)
Permeability Coefficient for assorted molecules
ASSAY_READOUT: Permeability Coefficient

[[record]]
line_notation = "CCCCCCCC[N+](C)(C)CCCS(=O)(=O)[O-]"
tgt = "Caco-2 cell monolayers"
assay_readout = "Permeability Coefficient"
observed_value = "0.218 ×10⁻⁶ cm/s"

[[record]]
line_notation = "CCCCCCCCCCCCCCCCCC[N+](C)(C)CCCS(=O)(=O)[O-]"
tgt = "Caco-2 cell monolayers"
assay_readout = "Permeability Coefficient"
observed_value = "0.649 ×10⁻⁶ cm/s"

[[record]]
line_notation = "CCCCCCCCCCCC[N+](C)(C)CCCS(=O)(=O)[O-]"
tgt = "Caco-2 cell monolayers"
assay_readout = "Permeability Coefficient"
observed_value = "0.257 ×10⁻⁶ cm/s"

[[record]]
line_notation = "CCCCCCCCCCCCCC[N+](C)(C)CCCS(=O)(=O)[O-]"
tgt = "Caco-2 cell monolayers"
assay_readout = "Permeability Coefficient"
observed_value = "0.654 ×10⁻⁶ cm/s"


* * *

- PROCEDURE_DETAILS: Permeability of SAMe across Caco-2 cell monolayers (Example 3)
- RECORDED_CONDITIONS: human, Caco-2, pH 7.4
ASSAY_READOUT: Papp A→B at 120 min (×10⁻⁶ cm/s)

[[record]]
compound = "CC(C)NCC(O)COc1cccc2ccccc12 (stereo not shown) [Propranolol]"
assay_readout = "Papp A→B at 120 min"
unit_annotation = "×10⁻⁶ cm/s"
observed_value = 22.4


* * *

- PROCEDURE_DETAILS: Caco-2 permeability of SAMe in the presence of tight junction modulators (Examples 3a, 3c)
- RECORDED_CONDITIONS: human, Caco-2, pH 7.4, Permeability Coefficient, permeability control compound itself, 50 uM; run 3
ASSAY_READOUT: Papp at 2 h, 50 uM (×10⁻⁶ cm/s)

[[record]]
compound = "CNC(=C[N+](=O)[O-])NCCSCc1ccc(CN(C)C)o1 [Ranitidine, reference compound]"
assay_readout = "Papp at 2 h, 50 uM"
unit_annotation = "×10⁻⁶ cm/s"
observed_value = 0.91

[[record]]
compound = "CC(=O)CC(c1ccccc1)c1c(O)c2ccccc2oc1=O (centres unmarked) [Warfarin, reference compound]"
assay_readout = "Papp at 2 h, 50 uM"
unit_annotation = "×10⁻⁶ cm/s"
observed_value = 49


* * *

- Test system: Caco-2 cell monolayers
- PROCEDURE_DETAILS: Caco-2 permeability of SAMe in the presence of tight junction modulators (Examples 3a, 3c)
- RECORDED_CONDITIONS: SAMe transport vs SAMe control; enhancer 0.15 mM (Table 7)
# Fold Transport Increase annotations
ASSAY_READOUT: Fold Transport Increase (X)

[[record]]
compound = "CCCCCCCCCCCCCCCCCC[N+](C)(C)CCCS(=O)(=O)[O-] [Sulfobetaine-18]"
observed_value = 5.0

[[record]]
compound = "CCCCCCCCCCCC[N+](C)(C)CCCS(=O)(=O)[O-] [Sulfobetaine-12]"
observed_value = 1.4

[[record]]
compound = "CCCCCCCC[N+](C)(C)CCCS(=O)(=O)[O-] [Sulfobetaine-8]"
observed_value = 1.2

[[record]]
compound = "CCCCCCCCCCCCCC[N+](C)(C)CCCS(=O)(=O)[O-] [Sulfobetaine-14]"
observed_value = 5.0


* * *

- PROCEDURE_DETAILS: Caco-2 permeability of SAMe in the presence of tight junction modulators (Examples 3a, 3c)
- RECORDED_CONDITIONS: human, Caco-2, pH 7.4, Permeability Coefficient, permeability control compound itself, 50 uM; run 2
Form field: Papp at 2 h, 50 uM (one value per entry).
ASSAY_READOUT: Papp at 2 h, 50 uM (×10⁻⁶ cm/s)

[[record]]
compound = "CC(=O)CC(c1ccccc1)c1c(O)c2ccccc2oc1=O (centres unmarked) [Warfarin, reference compound]"
observed_value = 48.8

[[record]]
compound = "CNC(=C[N+](=O)[O-])NCCSCc1ccc(CN(C)C)o1 [Ranitidine, reference compound]"
observed_value = 0.91

